Data credit: patent US20250197488A1

Task for the reader: assign each of the following binders its reported IC50.
Biological target: T1, IL-11 (Cat. 12225-HNCE, Sino Biological Inc.) (UniProt P20809 22-199, limits assumed)
T1 sequence (looked up): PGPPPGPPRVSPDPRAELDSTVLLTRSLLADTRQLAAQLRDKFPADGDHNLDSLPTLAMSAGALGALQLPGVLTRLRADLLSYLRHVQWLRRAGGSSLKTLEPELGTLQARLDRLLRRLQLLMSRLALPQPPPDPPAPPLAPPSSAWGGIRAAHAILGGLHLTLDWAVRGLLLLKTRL
Experiment: competition ELISA, IL-11/IL-11Rα/GP130 complex
Could you write the number and then its unit?

// input: 4 binders below; output: IC50 for each
1. hz8C8-VHm1-m5 + hz8C8-VLm7-m2 (antibody, human IgG1, kappa, V domains shown, human IgG1 constant regions) VH: EVQLVESGGGLVQPGGSLRLSCAASGFTFSSFGMHWVRQAPGKGLEYVAYITPGSNTIYYADTVKGRFTISRDNAKNSLYLQMNSLRAEDTAVYYCAREYYSYDEGFAYWGQGTLVTVSS VL: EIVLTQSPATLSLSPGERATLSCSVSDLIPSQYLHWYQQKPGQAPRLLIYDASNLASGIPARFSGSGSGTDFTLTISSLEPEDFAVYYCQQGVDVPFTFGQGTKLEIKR
2. hz8C8-VHm1-m3 + hz8C8-VLm7-m2 (antibody, human IgG1, kappa, V domains shown, human IgG1 constant regions) VH: EVQLVESGGGLVQPGGSLRLSCAASGFTFSSFGMHWVRQAPGKGLEWVAYITPGSNTIYYADTVKGRFTISRDNAKNSLYLQMNSLRAEDTAVYYCAREYSSYDEGFAYWGQGTLVTVSS VL: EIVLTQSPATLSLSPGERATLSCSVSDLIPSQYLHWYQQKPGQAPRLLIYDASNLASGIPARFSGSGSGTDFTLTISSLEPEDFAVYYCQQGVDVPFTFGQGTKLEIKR
3. hz8C8-VHm1-m6 + hz8C8-VLm7-m2 (antibody, human IgG1, kappa, V domains shown, human IgG1 constant regions) VH: EVQLVESGGGLVQPGGSLRLSCAASGFTFSSFGMHWVRQAPGKGLEWVAVITPGSNTIYYADTVKGRFTISRDNAKNSLYLQMNSLRAEDTAVYYCAREYYSYDEGFAYWGQGTLVTVSS VL: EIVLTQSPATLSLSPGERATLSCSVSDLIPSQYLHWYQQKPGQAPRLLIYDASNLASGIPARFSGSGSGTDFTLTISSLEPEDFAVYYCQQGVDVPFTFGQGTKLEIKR
4. hz8C8-VHm1-m11 + hz8C8-VLm7-m2 (antibody, human IgG1, kappa, V domains shown, human IgG1 constant regions) VH: EVQLVESGGGLVQPGGSLRLSCAASGFTFSSFGMHWVRQAPGKGLEWVAYITPGSNTIYYADTVKGRFTISRDNAKNSLYLQMNSLRAEDTAVYYCAREYYSYDEGPAYWGQGTLVTVSS VL: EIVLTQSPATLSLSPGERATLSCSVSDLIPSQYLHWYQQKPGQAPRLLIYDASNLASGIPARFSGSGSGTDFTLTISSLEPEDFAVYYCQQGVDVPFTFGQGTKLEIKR

1. 0.52 µg/mL
2. 0.67 µg/mL
3. 1.71 µg/mL
4. 1.7 µg/mL

Lab note: measured IC50 of hz8C8-VHm1-m8 + hz8C8-VLm7-m2 (antibody, human IgG1, kappa, V domains shown, human IgG1 constant regions) VH: EVQLVESGGGLVQPGGSLRLSCAASGFTFSSFGMHWVRQAPGKGLEWIGYITPGSNTIYYADTVKGRFTISRDNAKNSLYLQMNSLRAEDTAVYYCAREYYSYDEGFAYWGQGTLVTVSS VL: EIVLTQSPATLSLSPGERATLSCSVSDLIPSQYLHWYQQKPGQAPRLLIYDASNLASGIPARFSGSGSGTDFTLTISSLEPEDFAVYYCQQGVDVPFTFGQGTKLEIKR was 0.57 µg/mL
